Read-out: glucuronosyltransferase (UGT1A1), UGT1A1 (gene 54658)
test.name: CLD_UGT1A1_24hr: CellzDirect (CLD) Gene Expression Assay for glucuronosyltransferase (UGT1A1) at 24 hours (AID 2283696)
Inconclusive results are not listed. Activity calls are given as the source filed them. The calls were made as follows: active = hit-call score of the fitted dose curve at least 0.9, where 1 is the maximum; inconclusive = response in the unintended direction; inactive = score below 0.9.
Your response should consist of one outcome taken from class 1 (active), class 0 (inactive)

Observe how each entry below is paired with its result.
CC(C)(C)c1ccc(CSc2cnn(C(C)(C)C)c(=O)c2Cl)cc1: class 0
COc1nc(NC(C)C)nc(NC(C)C)n1: class 0
COC(=O)C=C(C)OP(=O)(OC)OC: class 0
C=CCC1=C(C)[C@@H](OC(=O)[C@@H]2[C@@H](C=C(C)C)C2(C)C)CC1=O: class 1
OC(c1ccc(Cl)cc1)(c1cncnc1)c1ccccc1Cl (stereo unspecified): class 0

Q: Returns: the outcome recorded for CCON=C(CC)C1=C(O)CC(c2c(C)cc(C)cc2C)CC1=O (stereo unspecified) in this assay.
Result: class 0
